# SYSTEM_NAME: PknB (Mycobacterium tuberculosis, UniProt P9WI81)
# Sequence (P9WI81 1-331 limits assumed): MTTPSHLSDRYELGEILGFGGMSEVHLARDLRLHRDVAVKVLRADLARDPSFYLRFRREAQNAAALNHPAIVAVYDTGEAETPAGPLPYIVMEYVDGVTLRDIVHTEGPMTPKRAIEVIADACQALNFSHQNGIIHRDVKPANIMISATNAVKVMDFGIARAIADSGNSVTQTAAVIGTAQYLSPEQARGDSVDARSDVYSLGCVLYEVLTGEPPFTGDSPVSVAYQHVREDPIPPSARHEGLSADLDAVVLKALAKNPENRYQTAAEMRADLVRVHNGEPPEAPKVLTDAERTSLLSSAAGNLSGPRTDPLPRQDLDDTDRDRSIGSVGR
MEASURED_ATTRIBUTE: IC50 (µM)
Numeric answer only, unit µM assumed.

// query Tell me reported IC50 for COC(=O)/C=C/C(=O)c1ccc(OC)cc1 [YH-8] , tested with PknB (Mycobacterium tuberculosis, UniProt P9WI81).
// result 6.6
